- EXPERIMENTAL SYSTEM: human histamine H3 receptor (Homo sapiens, UniProt Q9Y5N1)
- Construct: One μg supercoiled H3 receptor cDNA was added to the cells; expressed in transfected cells; membranes prepared from cell pellets
- Sequence (Q9Y5N1 whole entry): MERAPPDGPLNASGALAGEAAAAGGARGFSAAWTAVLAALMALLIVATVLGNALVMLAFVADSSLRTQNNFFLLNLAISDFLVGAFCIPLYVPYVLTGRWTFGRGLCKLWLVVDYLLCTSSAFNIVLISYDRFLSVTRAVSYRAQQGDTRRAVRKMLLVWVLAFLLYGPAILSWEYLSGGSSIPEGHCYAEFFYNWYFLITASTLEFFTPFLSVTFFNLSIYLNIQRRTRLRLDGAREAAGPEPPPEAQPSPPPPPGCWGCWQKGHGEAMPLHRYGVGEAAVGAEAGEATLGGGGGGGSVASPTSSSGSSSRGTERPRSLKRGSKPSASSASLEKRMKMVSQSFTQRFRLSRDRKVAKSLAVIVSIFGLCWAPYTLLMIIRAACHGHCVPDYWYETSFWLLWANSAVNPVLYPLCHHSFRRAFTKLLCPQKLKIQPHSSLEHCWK
- PROTOCOL: [3H]-N-Methylhistamine binding to membranes of histamine H3 receptor-expressing SK-N-MC cells
- TEST SETTINGS: 0.8 nM [3H]-N-methylhistamine, 60 min at 25° C., SK-N-MC cell membranes; Ki=(IC50)/(1+([L]/(KD))
Counter-ions that a name gives are not always drawn.
ENDPOINT NAME: pKi
Keep in mind that pKi stands for -log10 of concentration in molar terms.

Given item CC(C)N1CCN(C(=O)c2ccc(CN3CCC(F)CC3)o2)CC1 [Example 19, fumarate salt] , the value recorded as its pKi is 7.19
